Test System: T1, Cynomolgus monkey MASP-2 D4-6 recombinant protein (Cynomolgus monkey, UniProt O00187 298-686 (human entry), limits assumed)
T1 construct: Made 'similarly' to the human protein (N-terminal his6 tag)
T1 sequence (O00187 other isoform, or with tags, fused parts or gaps limits assumed): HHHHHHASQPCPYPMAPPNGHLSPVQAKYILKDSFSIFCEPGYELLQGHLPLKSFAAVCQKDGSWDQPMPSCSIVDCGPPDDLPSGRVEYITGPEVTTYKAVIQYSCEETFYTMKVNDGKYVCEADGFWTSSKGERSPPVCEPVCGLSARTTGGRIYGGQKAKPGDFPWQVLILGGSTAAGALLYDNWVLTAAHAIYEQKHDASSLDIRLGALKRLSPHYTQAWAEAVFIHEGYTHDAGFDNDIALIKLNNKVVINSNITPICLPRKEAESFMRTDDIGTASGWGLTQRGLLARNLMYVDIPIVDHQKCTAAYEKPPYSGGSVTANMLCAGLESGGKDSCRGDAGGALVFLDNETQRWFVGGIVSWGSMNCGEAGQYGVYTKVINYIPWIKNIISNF
Assay Procedure: SPR Biacore T200, antibody on Protein A chip, antigen as analyte, 1:1 fit
Procedure: Surface plasmon resonance technology (SPR/Biacore T200) was used to capture 0.1 μg/ml of the antibody on the surface of the Protein A chip, with a capture time of 40 seconds and a flow rate of 10 μl/min. The chip was washed with buffer until the baseline leveled off, then gradient-diluted antigen was flowed through the chip at the flow rate of 30 μl/min, with a binding time of 120 sec and a dissociation time of 600 sec. […]
Here the recorded pKd is given for each entry.
# log scale: pKd equals minus log10 of the concentration in mol/L

// below: answered binders
Binder: chimeric antibody 3B9 (antibody, V domains shown) VH: DVQLQESGPGLVRPSQSLSLTCTVTGYSITSDYAWNWIRQFPGNKLEWMGYISYSGRTSYNPSLKSRLSITRDTSKNQFFLQLNSVSSADTATYYCAIISTAVDFDYWGQGTTLTVSS VL: QTVLTQSPAIMSASLGERVTMTCTASSSVSSSYLLWYQQKPGSSPKLWIYSTSKLASGVPVRFSGSGSGTSYSLTISSMEADDAATYYCLQYNRSPLTFGAGTKLELK
pKd: 10.29
//
Binder: chimeric antibody 16A17 (antibody, V domains shown) VH: DVQLQESGPGLVKPSQSLSLTCTVTGYSITSDYAWKWIRQFPGNKLEWMGYISYSGSTSYHPSLKGRISITRDTSKNQFFLQLNSVTADDTATYYCAILGYYAMDYWGQGTSVTVSS VL: DIVMTQSQKFMSTSVGDRVSITCKASQNVRVDVAWYQQKSGQSPRALIYLASNRHTGVPDRFTGSGSGTDFTLTITNVQSEDLADYFCPQHWSYPLTFGGGTKLEIK
pKd: 10.20
//
Binder: chimeric antibody 1B2 (antibody, V domains shown) VH: DVQLQESGPGLVKPSQSLSLTCTVTGYSITSDYAWNWIRQFSGDKLEWMGYISYSGSTSYNPSLKSRISITRDTSKNQFFLHLSSVTTEDTATYFCARYWGDYWGHGTTLTVSS VL: DSVMTQSQKFMSTSVGDRVSVTCKASHNVGTNVAWFQQKPGQSPKGLIYSASYRSSGVPDRFTGSGSGTDFTLTISNVQSEDLAEYFCLQYNSNPLTFGGGTKLEVK
pKd: 10.11
//
Binder: chimeric antibody 4F18 (antibody, V domains shown, to be rechecked) VH: EVQLQESGPGLVKPSQSLSLACTVTGYSITSDYAWHWIRQFPGNKLEWMGFISYSGRTNYNPPLTSRISITRDTSKNQFFLQLNSVTTEDTATYYCARSYDYWFGYWGQGTLVTVSA VL: NVLMTQTPLSLPVSLGDQASISCRSSQSLVHSNGNTYLEWYMQKPGQSPKLLIYTVSRRFSGVPDRFSGSGSGTDFTLKISRVEAEDLGVYYCFQGSHVPVTFGAGTKLELK
pKd: 7.61
//
Binder: chimeric antibody 10L3 (antibody, V domains shown) VH: DVQLQESGPGLVKPSQSLSLTCTVTGYSITSDYAWNWIRQFPGNKLEWMGYISYSGRTSYNPSLKSRISITRDTSKNQFFLQLNSVTTEDTATYYCAKLGGGHGMDYWGQGTSVTVSS VL: IVMTQSQKFMSTSVGDRVSVTCKASQNVDTNVAWYQQKPGQSPKALIYSASYRYSGVPDRFTGSGSGTDFTLTISNVQSEDLAEYFCLQYNSYLTFGSGTKLELK
pKd: 8.89
//
Binder: chimeric antibody 25L15 (antibody, V domains shown) VH: KVKLVESGGDLVKPGGSLKISCAASGFTFSNYAMSWIRQTPDKRLEWVATVSSGGPYTYYPDSVKGRFTISRDNAENTLYLQMSSLRSDDTAIYYCARQIYSDYDVTYWGQGTLVTVSA VL: QIVLSQSPAILSASPGETVTMTCRVSSSVSYMYWLQQKPGSSPKPWIYATSNLASGVPARFSGSGSGTSYSLTITRVEAEDAATYYCQQWSFRPWTFGGGTKLEIK
pKd: 9.04

From here, focus on the item given below.
Which value of pKd has been reported for chimeric antibody 28O14 (antibody, V domains shown) VH: QVQLQQSGTELARPGASVRMSCKASGYTFRSHTMHWVKQRPGQGLEWIGYINPSTGYINYNQKFKDKATLTADKSSSTAYMQLSSLTSEDSAVYYCARSNYSYYYGMDYWGQGTSVTVSS VL: DIVMTQSHKFMSTSVGDRVTITCKASQDVNTAVAWYQQKPGQSPKLLIYSASYRYTGVPDRFTGSGSGTDFTFTISSLQAEDLAVYYCQQHYNIPLTFGAGTKLELK in the records? 11.00
